Tested on: CCRIS mutagenicity, Ames/micronucleus/aberration tests
procedure-text: CCRIS mutagenicity studies
protocol-conditions: Test System: AMES SALMONELLA TYPHIMURIUM; Strain/Indicator: TA1537; Metabolic Activation: RAT, LIVER, S-9, AROCLOR 1254; Method: STANDARD PLATE
The source made the active and inactive calls. How the calls were made is not given here.
Outcome (select one): active, inactive

Study these solved cases before continuing.
entry_smiles=C1CCC(C2(C3CCCCC3)COCCOCCOCCOCCOCCOCCO2)CC1 class=inactive
entry_smiles=O=C(O)c1cc(=O)c2c(OCC(O)COc3cccc4oc(C(=O)O)cc(=O)c34)cccc2o1 class=inactive
entry_smiles=Nc1cc2nc3ccccc3nc2cc1N class=active

Q: Hello, I am checking results. What call was entered for CN1CCN(C2=Nc3cc(Cl)ccc3Nc3ccccc32)CC1 ?
A: inactive

Q: Hello, I am checking results. What call was entered for COc1cc(/C=C/C(=O)CC(=O)/C=C/c2ccc(O)c(OC)c2)ccc1O ?
A: inactive

Q: Hello, I am checking results. What call was entered for ClC(Cl)Br ?
A: inactive
